Target: T1, human TNFR2 on the surface of CHO-TNFR2 cells (human, UniProt P20333 23-461)
T1 construct: whole, on cells
T1 sequence (looked up): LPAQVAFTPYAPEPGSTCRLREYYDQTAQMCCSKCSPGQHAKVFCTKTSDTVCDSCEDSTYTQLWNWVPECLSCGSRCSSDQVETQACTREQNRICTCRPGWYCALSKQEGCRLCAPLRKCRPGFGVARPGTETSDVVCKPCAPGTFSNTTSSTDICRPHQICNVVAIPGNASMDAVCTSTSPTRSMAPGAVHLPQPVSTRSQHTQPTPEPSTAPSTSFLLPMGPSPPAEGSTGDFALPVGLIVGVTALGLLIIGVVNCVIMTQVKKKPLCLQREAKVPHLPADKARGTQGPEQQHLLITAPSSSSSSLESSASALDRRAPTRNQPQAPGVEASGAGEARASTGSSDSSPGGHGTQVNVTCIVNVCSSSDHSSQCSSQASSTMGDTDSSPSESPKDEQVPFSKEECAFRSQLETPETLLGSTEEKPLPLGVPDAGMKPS
Experiment: flow cytometry on CHO-TNFR2 cells; EC50 against 224-WT
Protocol: The transfected full-length plasmid of human TNFR2 was purchased from Sino Biological (Cat #HG10417-UT, NCBI Ref Seq: NM_001066.2). The experiment was conducted at a cell density within 80%. […] After the staining, similarly, the cells were washed twice with the staining buffer; finally, the cells were resuspended in 200 μl of staining buffer; signals were detected by a flow cytometer (Thermo Attune NxT). […]
MEASURED_PROPERTY: % Relative activity (WT antibody/test antibody) (%)
One number for each entry, in %.

QUERY: Endpoint output: % Relative activity (WT antibody/test antibody) of 224-Hu5 (antibody, V domains shown, Humanized form of #224; also called VH9 + VL9) VH: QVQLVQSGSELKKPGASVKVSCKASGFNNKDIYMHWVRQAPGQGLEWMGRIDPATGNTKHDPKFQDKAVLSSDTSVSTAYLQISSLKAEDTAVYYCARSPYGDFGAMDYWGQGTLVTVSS VL: DIQMTQSPSSLSASVGDRVTITCTASSSVSSNYLHWYQQKPGKAPKLLIYSTSNLPSGVPSRFSGSGSGTDYSLTISSLQPEDFATYYCHQYHRSPWTFGQGTKVEIK . Value?
RESULT: 112
